As shown below, each of these compounds has a reported IC50 value.
Tested on: Bj-5ta
PROTOCOL SUMMARY: MTT assay, BJ-5ta non-cancerous fibroblasts
Assay type: cell-based, human
PARTICULARS: non-cancerous dermal fibroblasts, 48 h incubation
TEST READOUT: IC50

INSERT INTO results (compound, result) VALUES
  ('Cl.Cl.O=C(COc1ccc(/C=C2\SC(=O)N(Cc3c4ccccc4nc4ccccc34)C2=O)cc1)Nc1ccccc1C(F)(F)F [Compound 7e·2HCl]', '> 50 µM'),
  ('COc1cc(/C=C2\SC(=O)N(Cc3c4ccccc4nc4ccccc34)C2=O)ccc1OCC(=O)Nc1cccc(C(F)(F)F)c1 [12f·2HCl]', '> 50 µM'),
  ('COc1cc(/C=C2\SC(=O)N(Cc3c4ccccc4nc4ccccc34)C2=O)ccc1OCC(=O)Nc1cc(OC)c(OC)c(OC)c1 [12c·2HCl]', '> 50 µM');
